Each record here notes measured Ratio OD(Variant)/OD(WT).
target: HRgpA-6H (Porphyromonas gingivalis) (UniProt P28784); test: ELISA, FASEBA Fab on coated HRgpA-6H
Write the number on its own, no unit after it.

Guide cases for Ratio OD(Variant)/OD(WT), answers given:
Ratio OD(Variant)/OD(WT) in this record for KB001 mouse Fab VL T100M (Fab, V domains shown) VH: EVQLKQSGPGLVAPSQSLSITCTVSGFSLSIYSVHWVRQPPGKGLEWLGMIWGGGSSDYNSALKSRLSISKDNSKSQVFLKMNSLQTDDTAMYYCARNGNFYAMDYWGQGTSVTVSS VL: QIVLTQSPAIMSASLGERVTMTCTASSSVSSSFLHWYQQKPGSSPQLWIYSTSNLASGVPARFSGSGSGTSYSLTISSMEAEDAATYYCHQYHHSPYIYMFGGGTKLEIK : 1.12

Reported Ratio OD(Variant)/OD(WT) ( KB001 mouse Fab VL T100F (Fab, V domains shown) VH: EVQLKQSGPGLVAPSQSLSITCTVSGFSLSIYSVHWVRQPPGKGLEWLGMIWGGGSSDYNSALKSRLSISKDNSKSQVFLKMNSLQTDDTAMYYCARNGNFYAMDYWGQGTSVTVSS VL: QIVLTQSPAIMSASLGERVTMTCTASSSVSSSFLHWYQQKPGSSPQLWIYSTSNLASGVPARFSGSGSGTSYSLTISSMEAEDAATYYCHQYHHSPYIYFFGGGTKLEIK ) = 1.05

Next up:
Per the record, KB001 mouse Fab VL S53R (Fab, V domains shown) VH: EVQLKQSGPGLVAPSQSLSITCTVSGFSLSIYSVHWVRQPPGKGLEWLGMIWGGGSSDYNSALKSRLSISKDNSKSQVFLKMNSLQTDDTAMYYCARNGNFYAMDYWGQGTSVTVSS VL: QIVLTQSPAIMSASLGERVTMTCTASSSVSSSFLHWYQQKPGSSPQLWIYSTRNLASGVPARFSGSGSGTSYSLTISSMEAEDAATYYCHQYHHSPYIYTFGGGTKLEIK has Ratio OD(Variant)/OD(WT) of 0.809
